# target-entity: yeast proteasome β5/β5' (Saccharomyces cerevisiae, UniProt P30656)
# measurement-protocol: Proteasome assay, chymotrypsin-like activity (fluorogenic substrate Suc-Leu-Leu-Val-Tyr-AMC)
# Format: biochemical, Saccharomyces cerivisiae
# Parameters: from tissue; host or cells: Saccharomyces cerevisiae (natural complex from yeast; I conclude this from 'proteasome from')
# recorded-conditions: chymotrypsin-like activity; Suc-Leu-Leu-Val-Tyr-AMC 8 µM; inhibitor incubated 1 h at 37°C, Tris-buffer pH 7.5
Give measured IC50 for each item. Keep answers brief.
Numbers only, in µM.

Completed entries (count: 2):
substance="(PEG)19-25-[NH-CO-(CH2)2-CO-Arg-Val-Arg-H][NH-CO-(CH2)2-CO-Leu-Leu-Nle-H] [compound 7]" val=0.031
substance="HOOC-(CH2)2-CO-NH-(PEG)19-25-NH-(CH2)2-CO-Leu-Leu-Nle-H [compound 3]" val=1.8

Turning now to a further record.
Query block: Request the reported IC50 associated with (PEG)19-25-[NH- CO- (CH2)2- CO-Leu-Leu-Nle-H]2 [compound 4]
Result block: 0.017
